- System: human osteosarcoma cell line SJSA-1
- assay: Inhibition of proliferation of human osteosarcoma cell line SJSA-1 (DAPI staining, In Cell Analyzer)
- conditions: Homo sapiens, SJSA-1, 72 h, read-out: IC50 (nM), inhibitory activity on proliferation of human osteosarcoma cell line SJSA-1, SJSA-1, incubated 72 h
Below: a set of entries, each annotated with reported IC50.
Report the figure along with its unit, number first.

INPUT: Request - read-out IC50 | tested on human osteosarcoma cell line SJSA-1 | compound COc1cc(C)ccc1-c1nc2c(n1C(C)C)[C@@]1(C(=O)Nc3cc(Cl)ccc31)N(c1cccc(Cl)c1)C2=O [Example S-109]
OUTPUT: 54.6 nM

INPUT: Request - read-out IC50 | tested on human osteosarcoma cell line SJSA-1 | compound CCOc1cc(OC)c(-c2nc3c(n2C(C)C)[C@]2(C(=O)Nc4cc(Cl)ccc42)N(c2cc(Cl)ccc2C)C3=O)cn1 [Example R-72]
OUTPUT: 3480 nM

INPUT: Request - read-out IC50 | tested on human osteosarcoma cell line SJSA-1 | compound COc1cc(N(C)C)c(F)cc1-c1nc2c(n1C(C)C)[C@]1(C(=O)Nc3cc(Cl)ccc31)N(c1cc(Cl)ccc1C)C2=O [Example R-78]
OUTPUT: 1360 nM

INPUT: Request - read-out IC50 | tested on human osteosarcoma cell line SJSA-1 | compound COc1ncc(-c2nc3c(n2C(C)C)[C@@]2(C(=O)Nc4cc(Cl)ccc42)N(c2cc(Cl)ccc2C)C3=O)c(OC)n1 [Example S-2]
OUTPUT: 7.4 nM

INPUT: Request - read-out IC50 | tested on human osteosarcoma cell line SJSA-1 | compound COc1ncc(-c2nc3c(n2C2CCC2)[C@@]2(C(=O)Nc4cc(Cl)ccc42)N(c2cc(Cl)ccc2C)C3=O)c(OC)n1 [Example S-41]
OUTPUT: 1210 nM

INPUT: Request - read-out IC50 | tested on human osteosarcoma cell line SJSA-1 | compound COc1ccc(-c2nc3c(n2C(C)C)[C@]2(C(=O)Nc4cc(Cl)ccc42)N(c2cc(Cl)ccc2C)C3=O)c(OC)n1 [Example R-8]
OUTPUT: 2290 nM

INPUT: Request - read-out IC50 | tested on human osteosarcoma cell line SJSA-1 | compound COc1ccc(-c2nc3c(n2C(C)C)[C@@]2(C(=O)Nc4cc(Cl)ccc42)N(c2cc(Cl)c(=O)n(C)c2)C3=O)c(OC)c1 [Example S-52]
OUTPUT: 467 nM

INPUT: Request - read-out IC50 | tested on human osteosarcoma cell line SJSA-1 | compound COc1cc(Cl)cc(N2C(=O)c3nc(-c4cnc(OC)nc4OC)n(C(C)C)c3[C@]23C(=O)Nc2cc(Cl)ccc23)c1 [Example R-58]
OUTPUT: 5890 nM

INPUT: Request - read-out IC50 | tested on human osteosarcoma cell line SJSA-1 | compound COc1ncc(-c2nc3c(n2C(C)C)[C@]2(C(=O)Nc4cc(Cl)ccc42)N(c2cccc(C)c2)C3=O)c(OC)n1 [Example R-55]
OUTPUT: 9940 nM

INPUT: Request - read-out IC50 | tested on human osteosarcoma cell line SJSA-1 | compound CNC(=O)c1ccc(-c2nc3c(n2C(C)C)[C@@]2(C(=O)Nc4cc(Cl)ccc42)N(c2cc(Cl)ccc2C)C3=O)c(OC)c1 [Example S-54]
OUTPUT: 468 nM

INPUT: Request - read-out IC50 | tested on human osteosarcoma cell line SJSA-1 | compound COc1ncc(-c2nc3c(n2C(C)C)[C@]2(C(=O)Nc4cc(Cl)ccc42)N(c2cc(Cl)ccc2F)C3=O)c(OC)n1 [Example R-44]
OUTPUT: 1330 nM

INPUT: Request - read-out IC50 | tested on human osteosarcoma cell line SJSA-1 | compound CCOc1cc(OC)c(-c2nc3c(n2C(C)C)[C@@]2(C(=O)Nc4cc(Cl)ccc42)N(c2cc(Cl)ccc2C)C3=O)cn1 [Example S-72]
OUTPUT: 5.9 nM

INPUT: Request - read-out IC50 | tested on human osteosarcoma cell line SJSA-1 | compound CCc1ccccc1-c1nc2c(n1C(C)C)[C@@]1(C(=O)Nc3cc(Cl)ccc31)N(c1cc(Cl)ccc1C)C2=O [Example S-7]
OUTPUT: 1270 nM
